- ASSAY_REMARKS: physchem
- Format: physicochemical
- MEASUREMENT_PARAMETERS: pH 6.8
Square brackets hold non-standard residues; d marks the D form. Peptide text beside a SMILES is read from it. Gly(N-CH2-oxan-4-yl) = O=C(O)CNCC1CCOCC1; NCyclohexylmethylGly = O=C(O)CNCC1CCCCC1; NMeL = CN[C@@H](CC(C)C)C(=O)O; NMeA = CN[CH](C)C(=O)O; NEtG = CCNCC(=O)O

COMPOUND: CCN1CC(=O)N[C@@H](CC(C)C)C(=O)N2CCC[C@@H]2C(=O)N(C)[C@@H](CC(C)C)C(=O)N[C@@H](C)C(=O)N(CC2CCCCC2)CC(=O)N[C@@H](Cc2ccccc2)C(=O)N2CCC[C@@H]2C(=O)N(C)[C@@H](CC(C)C)C(=O)N[C@@H](C)C1=O [B08] (cyclo([NEtG]L[dP][NMeL]A[NCyclohexylmethylGly]F[dP][NMeL]A))
aq. sol. pH 6.8 [μg/mL]: 210
--
COMPOUND: CCN1CC(=O)NC(CC(C)C)C(=O)N(C)C(C)C(=O)NC(CC(C)C)C(=O)N2CCCC2C(=O)N(CC2CCOCC2)CC(=O)NC(CC(C)C)C(=O)N(C)C(C)C(=O)NC(C)C(=O)N2CCCC2C1=O (stereo not shown) [A03] (cyclo([NEtG]L[NMeA]LP[Gly(N-CH2-oxan-4-yl)]L[NMeA]AP); configuration not given here)
aq. sol. pH 6.8 [μg/mL]: 1900
--
COMPOUND: CCN1CC(=O)N[C@@H](CC(C)C)C(=O)N(C)[C@@H](C)C(=O)N[C@@H](CC(C)C)C(=O)N2CCC[C@@H]2C(=O)N(CC2CCOCC2)CC(=O)N[C@@H](CC(C)C)C(=O)N(C)[C@@H](C)C(=O)N[C@@H](Cc2ccccc2)C(=O)N2CCC[C@@H]2C1=O [A09] (cyclo([NEtG]L[NMeA]L[dP][Gly(N-CH2-oxan-4-yl)]L[NMeA]F[dP]))
aq. sol. pH 6.8 [μg/mL]: 640
--
COMPOUND: CCN1CC(=O)N[C@@H](CC(C)C)C(=O)N2CCC[C@@H]2C(=O)N(C)[C@@H](CC(C)C)C(=O)N[C@@H](C)C(=O)N(CC2CCOCC2)CC(=O)N[C@@H](Cc2ccccc2)C(=O)N2CCC[C@@H]2C(=O)N(C)[C@@H](CC(C)C)C(=O)N[C@@H](C)C1=O [B09] (cyclo(A[NEtG]L[dP][NMeL]A[Gly(N-CH2-oxan-4-yl)]F[dP][NMeL]))
aq. sol. pH 6.8 [μg/mL]: 2200
